experimentDescription: Oral bioavailability in Balb/c mouse at 50 mg/kg measured for 24 hrs by LC-MS/MS analysis
Assay type: ADME, organism-based
studyConditions: in vivo
parameterMeasured: bioavailability (%)
Hi! Could you send only the number? It should be in %, unit omitted.

*Q* Can you share its bioavailability? I mean this compound: "O=C(CCCCCCNC(=O)c1cc2cc(-c3cn[nH]c3)ccc2s1)NO"
*A* 0.13

###

measuredOn: Histone deacetylase 1 (Homo sapiens, UniProt Q13547)
Sequence (Q13547 whole entry): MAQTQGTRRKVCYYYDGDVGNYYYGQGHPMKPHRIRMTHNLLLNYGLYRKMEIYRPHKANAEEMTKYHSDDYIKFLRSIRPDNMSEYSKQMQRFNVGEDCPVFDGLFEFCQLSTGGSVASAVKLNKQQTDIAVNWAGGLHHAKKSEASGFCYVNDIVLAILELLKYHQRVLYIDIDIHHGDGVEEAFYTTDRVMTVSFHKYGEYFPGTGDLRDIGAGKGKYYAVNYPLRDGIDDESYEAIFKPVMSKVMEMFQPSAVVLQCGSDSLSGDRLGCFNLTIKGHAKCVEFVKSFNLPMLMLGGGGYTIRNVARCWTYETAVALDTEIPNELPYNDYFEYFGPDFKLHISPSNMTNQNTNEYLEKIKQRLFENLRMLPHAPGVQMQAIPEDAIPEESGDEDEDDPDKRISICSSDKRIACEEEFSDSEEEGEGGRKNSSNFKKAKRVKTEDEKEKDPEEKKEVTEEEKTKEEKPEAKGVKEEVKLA
parameterMeasured: IC50
The answer consists of two parts: a number and, after it, its unit.

*Q* Can you share its IC50? I mean this molecule: "O=C(CCCCCCNC(=O)c1cc2cc(-c3cn[nH]c3)ccc2s1)NO"
*A* 9.09 nM

###

experimentDescription: Aqueous solubility of the compound in aqueous buffer at pH 7.4
Assay type: physicochemical
parameterMeasured: solubility
The answer consists of two parts: a number and, after it, its unit.

*Q* Can you share its solubility? I mean this compound: "O=C(CCCCCCNC(=O)c1cc2cc(-c3cn[nH]c3)ccc2s1)NO"
*A* 0.695 µg/mL

###

experimentDescription: Tmax in Balb/c mouse at 1 mg/kg, iv measured for 24 hrs by LC-MS/MS analysis
Assay type: ADME, organism-based
studyConditions: in vivo
parameterMeasured: Tmax (min)
Hi! Could you send only the number? It should be in min, unit omitted.

*Q* Can you share its Tmax? I mean this molecule: "O=C(CCCCCCNC(=O)c1cc2cc(-c3cn[nH]c3)ccc2s1)NO"
*A* 4.8

###

experimentDescription: AUC (0 to infinity) in Balb/c mouse at 1 mg/kg, iv measured for 24 hrs by LC-MS/MS analysis
Format: ADME, organism-based
studyConditions: in vivo
parameterMeasured: AUC(0-inf) (ng·h/mL)
Hi! Could you send only the number? It should be in ng·h/mL, unit omitted.

*Q* Can you share its AUC(0-inf)? I mean this molecule: "O=C(CCCCCCNC(=O)c1cc2cc(-c3cn[nH]c3)ccc2s1)NO"
*A* 89.3

###

measuredOn: Rho-associated protein kinase 1 (Homo sapiens, UniProt Q13464)
Sequence (Q13464 whole entry, the tested form may be a part): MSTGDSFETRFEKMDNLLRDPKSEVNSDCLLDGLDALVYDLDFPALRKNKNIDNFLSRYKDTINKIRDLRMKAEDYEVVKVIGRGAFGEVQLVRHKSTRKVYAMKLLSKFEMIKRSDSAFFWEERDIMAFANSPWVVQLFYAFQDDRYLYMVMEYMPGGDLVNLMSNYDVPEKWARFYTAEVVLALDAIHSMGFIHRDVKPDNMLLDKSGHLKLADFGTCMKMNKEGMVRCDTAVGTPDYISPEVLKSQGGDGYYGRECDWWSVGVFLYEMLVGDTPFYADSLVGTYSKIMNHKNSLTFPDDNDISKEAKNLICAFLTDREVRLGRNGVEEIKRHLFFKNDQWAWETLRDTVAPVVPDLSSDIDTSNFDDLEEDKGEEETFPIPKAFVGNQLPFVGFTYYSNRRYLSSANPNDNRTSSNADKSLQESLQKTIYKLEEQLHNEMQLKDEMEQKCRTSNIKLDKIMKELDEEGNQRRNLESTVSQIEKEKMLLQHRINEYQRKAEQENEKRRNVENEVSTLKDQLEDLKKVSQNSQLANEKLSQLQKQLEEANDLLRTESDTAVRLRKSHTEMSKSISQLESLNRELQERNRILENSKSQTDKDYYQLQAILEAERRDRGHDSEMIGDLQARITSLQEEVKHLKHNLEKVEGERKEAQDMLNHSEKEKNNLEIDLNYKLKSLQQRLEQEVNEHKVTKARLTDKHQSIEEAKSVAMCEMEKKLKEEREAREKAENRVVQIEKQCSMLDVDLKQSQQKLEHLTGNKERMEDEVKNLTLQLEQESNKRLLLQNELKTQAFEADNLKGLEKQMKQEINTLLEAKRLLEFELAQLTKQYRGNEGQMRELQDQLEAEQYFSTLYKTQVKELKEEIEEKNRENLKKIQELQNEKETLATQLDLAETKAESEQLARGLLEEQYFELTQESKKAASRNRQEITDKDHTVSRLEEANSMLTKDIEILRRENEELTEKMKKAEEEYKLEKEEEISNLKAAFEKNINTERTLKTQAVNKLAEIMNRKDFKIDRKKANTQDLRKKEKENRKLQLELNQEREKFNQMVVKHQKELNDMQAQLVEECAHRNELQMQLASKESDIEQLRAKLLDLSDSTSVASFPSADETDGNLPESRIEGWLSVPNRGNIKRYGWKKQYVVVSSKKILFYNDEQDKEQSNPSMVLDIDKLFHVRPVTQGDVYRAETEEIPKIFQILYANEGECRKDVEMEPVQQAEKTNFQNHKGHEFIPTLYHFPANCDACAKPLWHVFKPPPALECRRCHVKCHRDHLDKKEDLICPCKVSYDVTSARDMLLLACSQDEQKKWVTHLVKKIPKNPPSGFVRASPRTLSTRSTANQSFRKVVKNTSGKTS
experimentDescription: Inhibition of N-terminal GST-tagged human recombinant ROCK1 (17 to 535 residues) expressed in baculovirus-infected Sf9 cells by HTRF KinEASE assay
IC50 for assorted molecules

Some solved entries appear below for comparison.
smilesRepresentation	IC50
O=C(CCCCCCNC(=O)c1cc2cc(-c3cn[nH]c3)ccc2s1)NO	58.2 nM
O=C(CCCCCCCNC(=O)c1cc2cc(-c3ccncc3)ccc2s1)NO	> 1000 nM
O=C(CCCCCCCNC(=O)c1cc2ccc(-c3ccncc3)cc2s1)NO	> 1000 nM

*Q* Can you share its IC50? I mean this molecule: "O=C(CCCCCCNC(=O)c1cc2cc(-c3ccncc3)ccc2s1)NO"
*A* > 1000 nM

###

measuredOn: UniProt:Q9BY41
Sequence (Q9BY41 whole entry): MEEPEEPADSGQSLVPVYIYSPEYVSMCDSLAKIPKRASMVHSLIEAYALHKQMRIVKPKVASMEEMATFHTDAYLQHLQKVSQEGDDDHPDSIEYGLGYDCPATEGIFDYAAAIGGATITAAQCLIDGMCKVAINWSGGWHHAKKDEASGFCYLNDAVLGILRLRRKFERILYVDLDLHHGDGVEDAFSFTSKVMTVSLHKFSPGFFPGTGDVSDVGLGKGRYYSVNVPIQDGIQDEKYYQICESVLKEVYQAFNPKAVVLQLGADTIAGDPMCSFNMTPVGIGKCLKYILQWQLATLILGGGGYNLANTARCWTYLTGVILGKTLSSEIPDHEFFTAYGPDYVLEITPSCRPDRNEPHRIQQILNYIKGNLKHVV
parameterMeasured: pIC50
The scale used: pIC50 is minus the common logarithm of the concentration in molar units.

*Q* What measured pIC50 is associated with "O=C(CCCCCCNC(=O)c1cc2cc(-c3cn[nH]c3)ccc2s1)NO" on UniProt:Q9BY41?
*A* 8.11

###

experimentDescription: Half-life in Balb/c mouse at 1 mg/kg, iv measured for 24 hrs by LC-MS/MS analysis
Format: ADME, organism-based
studyConditions: in vivo
parameterMeasured: half-life (min)
Hi! Could you send only the number? It should be in min, unit omitted.

*Q* Can you share its half-life? I mean this compound: "O=C(CCCCCCNC(=O)c1cc2cc(-c3cn[nH]c3)ccc2s1)NO"
*A* 1340

###

measuredOn: Histone deacetylase 9 (Homo sapiens, UniProt Q9UKV0)
Sequence (Q9UKV0 whole entry): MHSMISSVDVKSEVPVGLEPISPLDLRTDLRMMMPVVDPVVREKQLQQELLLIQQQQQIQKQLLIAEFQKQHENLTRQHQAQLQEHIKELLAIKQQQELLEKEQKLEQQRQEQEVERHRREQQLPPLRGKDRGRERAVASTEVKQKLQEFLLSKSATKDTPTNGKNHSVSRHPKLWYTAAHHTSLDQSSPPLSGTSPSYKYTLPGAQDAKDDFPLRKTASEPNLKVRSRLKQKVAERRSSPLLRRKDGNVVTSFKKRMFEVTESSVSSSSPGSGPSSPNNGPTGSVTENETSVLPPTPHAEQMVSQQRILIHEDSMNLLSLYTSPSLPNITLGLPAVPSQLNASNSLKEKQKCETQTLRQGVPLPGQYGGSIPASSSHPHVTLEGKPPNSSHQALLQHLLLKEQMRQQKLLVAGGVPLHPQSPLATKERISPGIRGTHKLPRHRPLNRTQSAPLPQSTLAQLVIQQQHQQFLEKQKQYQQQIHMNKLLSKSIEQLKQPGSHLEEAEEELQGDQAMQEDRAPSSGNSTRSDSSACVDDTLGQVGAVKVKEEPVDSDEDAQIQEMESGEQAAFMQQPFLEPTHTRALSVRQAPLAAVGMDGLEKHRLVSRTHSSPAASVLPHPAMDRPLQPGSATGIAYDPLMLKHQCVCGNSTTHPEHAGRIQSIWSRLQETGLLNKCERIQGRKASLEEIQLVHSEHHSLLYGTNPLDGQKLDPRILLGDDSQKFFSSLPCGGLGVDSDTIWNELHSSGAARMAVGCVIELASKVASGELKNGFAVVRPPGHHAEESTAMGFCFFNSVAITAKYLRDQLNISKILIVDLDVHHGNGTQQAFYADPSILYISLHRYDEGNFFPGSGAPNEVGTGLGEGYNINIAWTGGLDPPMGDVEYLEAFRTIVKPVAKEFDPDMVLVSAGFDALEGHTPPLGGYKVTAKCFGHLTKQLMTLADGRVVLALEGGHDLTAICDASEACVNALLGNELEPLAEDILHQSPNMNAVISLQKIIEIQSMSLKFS
parameterMeasured: IC50

*Q* What measured IC50 is associated with "O=C(CCCCCCNC(=O)c1cc2cc(-c3cn[nH]c3)ccc2s1)NO" on Histone deacetylase 9 (Homo sapiens, UniProt Q9UKV0)?
*A* > 10 µM

###

experimentDescription: Lipophilicity, log D of the compound at pH 7.4
Assay type: physicochemical
studyConditions: buffer
parameterMeasured: logD
Give a plain numeric answer without units written out.

*Q* Can you share its logD? I mean this compound: "O=C(CCCCCCNC(=O)c1cc2cc(-c3cn[nH]c3)ccc2s1)NO"
*A* 3.29

###

experimentDescription: Tmax in Balb/c mouse at 50 mg/kg, po measured for 24 hrs by LC-MS/MS analysis
Format: ADME, organism-based
studyConditions: in vivo
parameterMeasured: Tmax (min)
Hi! Could you send only the number? It should be in min, unit omitted.

*Q* Can you share its Tmax? I mean this molecule: "O=C(CCCCCCNC(=O)c1cc2cc(-c3cn[nH]c3)ccc2s1)NO"
*A* 1.8

###

measuredOn: UniProtKB P56524
pIC50: −log10 of the molar value.
parameterMeasured: pIC50

*Q* What measured pIC50 is associated with "O=C(CCCCCCNC(=O)c1cc2cc(-c3cn[nH]c3)ccc2s1)NO" on UniProtKB P56524?
*A* < 5.00

###

experimentDescription: Chemical stability of the compound in PBS buffer at pH 7.4 measured after 10 days
Assay type: physicochemical
studyConditions: time 10 day, read-out: Stability
parameterMeasured: remaining at 240 h
The answer consists of two parts: a number and, after it, its unit.

*Q* Can you share its remaining at 240 h? I mean this compound: "O=C(CCCCCCNC(=O)c1cc2cc(-c3cn[nH]c3)ccc2s1)NO"
*A* 98.5%

###

IC50 for assorted compounds
measuredOn: Rho-associated protein kinase 2 (Homo sapiens, UniProt O75116)
Sequence (O75116 whole entry, the tested form may be a part): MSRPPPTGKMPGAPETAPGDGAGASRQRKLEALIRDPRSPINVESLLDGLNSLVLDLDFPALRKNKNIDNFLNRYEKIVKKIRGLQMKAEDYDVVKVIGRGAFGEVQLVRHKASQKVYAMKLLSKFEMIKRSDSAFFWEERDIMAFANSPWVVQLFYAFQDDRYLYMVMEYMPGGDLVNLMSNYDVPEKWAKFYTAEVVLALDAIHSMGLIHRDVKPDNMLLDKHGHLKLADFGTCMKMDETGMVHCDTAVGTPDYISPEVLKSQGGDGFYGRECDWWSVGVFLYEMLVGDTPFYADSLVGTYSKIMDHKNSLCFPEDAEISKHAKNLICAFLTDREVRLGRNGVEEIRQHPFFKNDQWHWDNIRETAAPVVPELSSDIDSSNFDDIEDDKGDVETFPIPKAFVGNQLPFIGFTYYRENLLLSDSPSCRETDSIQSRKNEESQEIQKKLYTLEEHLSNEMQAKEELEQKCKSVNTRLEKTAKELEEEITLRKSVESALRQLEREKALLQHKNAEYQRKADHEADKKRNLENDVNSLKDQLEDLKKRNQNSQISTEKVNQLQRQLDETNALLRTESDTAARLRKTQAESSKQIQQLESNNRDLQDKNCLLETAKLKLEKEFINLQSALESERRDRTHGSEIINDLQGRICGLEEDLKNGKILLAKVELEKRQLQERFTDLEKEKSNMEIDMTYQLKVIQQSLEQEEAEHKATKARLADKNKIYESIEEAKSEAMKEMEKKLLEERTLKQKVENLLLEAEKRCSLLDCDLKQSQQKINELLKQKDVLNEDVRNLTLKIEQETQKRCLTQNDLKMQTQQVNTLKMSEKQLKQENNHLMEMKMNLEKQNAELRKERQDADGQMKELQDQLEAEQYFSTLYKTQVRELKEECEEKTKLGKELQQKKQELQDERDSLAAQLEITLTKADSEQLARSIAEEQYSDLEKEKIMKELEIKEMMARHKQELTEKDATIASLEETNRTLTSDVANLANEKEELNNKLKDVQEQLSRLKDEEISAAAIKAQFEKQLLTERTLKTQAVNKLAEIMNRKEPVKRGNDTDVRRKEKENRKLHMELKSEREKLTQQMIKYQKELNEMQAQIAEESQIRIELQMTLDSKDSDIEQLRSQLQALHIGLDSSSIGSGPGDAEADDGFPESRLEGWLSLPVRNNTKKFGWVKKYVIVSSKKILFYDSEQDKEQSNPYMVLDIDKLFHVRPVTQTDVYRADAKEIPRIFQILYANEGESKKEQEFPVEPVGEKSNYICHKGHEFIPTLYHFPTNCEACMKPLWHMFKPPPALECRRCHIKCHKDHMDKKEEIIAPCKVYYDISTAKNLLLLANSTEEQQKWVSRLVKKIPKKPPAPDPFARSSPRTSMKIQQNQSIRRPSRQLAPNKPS
experimentDescription: Inhibition of N-terminal GST-tagged human recombinant wild type ROCK2 (1 to 553 residues) expressed in baculovirus-infected Sf21 cells by HTRF KinEASE assay

smilesRepresentation	IC50
COc1cccc(CNC(=O)c2cc3cccc(-c4cn[nH]c4)c3s2)c1	225 nM

*Q* Can you share its IC50? I mean this compound: "O=C(CCCCCCNC(=O)c1cc2cc(-c3cn[nH]c3)ccc2s1)NO"
*A* 255 nM

###

experimentDescription: AUC (0 to infinity) in Balb/c mouse at 50 mg/kg, po measured for 24 hrs by LC-MS/MS analysis
Assay type: ADME, organism-based
studyConditions: in vivo
parameterMeasured: AUC(0-inf) (ng·h/mL)
Hi! Could you send only the number? It should be in ng·h/mL, unit omitted.

*Q* Can you share its AUC(0-inf)? I mean this compound: "O=C(CCCCCCNC(=O)c1cc2cc(-c3cn[nH]c3)ccc2s1)NO"
*A* 5.95

###

measuredOn: Rho-associated protein kinase 2 (Homo sapiens, UniProt O75116)
experimentDescription: Inhibition of N-terminal GST-tagged human recombinant wild type ROCK2 (1 to 553 residues) expressed in baculovirus-infected Sf21 cells by HTRF KinEASE assay
parameterMeasured: IC50

smilesRepresentation	IC50
COc1cccc(CN(CCN(C)C)C(=O)c2nc3ccc(-c4cn[nH]c4)cc3s2)c1	< 0.001 µM

*Q* What measured IC50 is associated with "O=C(CCCCCCCNC(=O)c1cc2ccc(-c3ccncc3)cc2s1)NO" on Rho-associated protein kinase 2 (Homo sapiens, UniProt O75116)?
*A* > 1 µM

*Q* What measured IC50 is associated with "COc1cccc(CNC(=O)c2cc3c(-c4cccc5cnccc45)cccc3s2)c1" on Rho-associated protein kinase 2 (Homo sapiens, UniProt O75116)?
*A* > 1 µM

*Q* What measured IC50 is associated with "CN[C@@H]1C[C@H](c2ccc3c(c2O)C(=O)c2c(C)sc(C(C)=O)c2C3=O)O[C@H](C)[C@H]1O" on Rho-associated protein kinase 2 (Homo sapiens, UniProt O75116)?
*A* 8.89 µM

###

measuredOn: Rho-associated protein kinase 2 (Homo sapiens)
experimentDescription: Inhibition of N-terminal GST-tagged human recombinant wild type ROCK2 (1 to 553 residues) expressed in baculovirus-infected Sf21 cells by HTRF KinEASE assay
pIC50: −log10 of the molar value.
pIC50 for assorted molecules

Some solved entries appear below for comparison.
smilesRepresentation	measuredOn	result
COc1cccc(CNC(=O)c2cc3cc(-c4ccncc4)ccc3s2)c1	Rho-associated protein kinase 2 (Homo sapiens)	< 6.00
COc1cccc(CNC(=O)c2cc3c(-c4ccncc4)cccc3s2)c1	Rho-associated protein kinase 2 (Homo sapiens)	< 6.00
COc1cccc(CNC(=O)c2cc3cccc(-c4ccncc4)c3s2)c1	Rho-associated protein kinase 2 (Homo sapiens)	< 6.00
COc1cccc(CNC(=O)c2cc3c(-c4ccc5[nH]ncc5c4)cccc3s2)c1	Rho-associated protein kinase 2 (Homo sapiens)	< 6.00
COc1cccc(CNC(=O)c2cc3ccc(-c4ccncc4)cc3s2)c1	Rho-associated protein kinase 2 (Homo sapiens)	6.53
COc1cccc(CNC(=O)c2cc3cc(-c4ccc5[nH]ncc5c4)ccc3s2)c1	Rho-associated protein kinase 2 (Homo sapiens)	< 6.00
COc1cccc(CNC(=O)c2cc3cc(-c4cccc5cnccc45)ccc3s2)c1	Rho-associated protein kinase 2 (Homo sapiens)	< 6.00
COc1cccc(CNC(=O)c2cc3ccc(-c4ccc5[nH]ncc5c4)cc3s2)c1	Rho-associated protein kinase 2 (Homo sapiens)	< 6.00
COc1cccc(CNC(=O)c2cc3ccc(-c4cn[nH]c4)cc3s2)c1	Rho-associated protein kinase 2 (Homo sapiens)	8.10
O=C(CCCCCCCNC(=O)c1cc2cc(-c3ccncc3)ccc2s1)NO	Rho-associated protein kinase 2 (Homo sapiens)	< 6.00

*Q* Can you share its pIC50? I mean this molecule: "COc1cccc(CNC(=O)c2cc3ccc(-c4cccc5cnccc45)cc3s2)c1"
*A* < 6.00

*Q* Can you share its pIC50? I mean this molecule: "COc1cccc(CNC(=O)c2cc3cccc(-c4cccc5cnccc45)c3s2)c1"
*A* < 6.00

*Q* Can you share its pIC50? I mean this molecule: "COc1cccc(CNC(=O)c2cc3c(-c4cn[nH]c4)cccc3s2)c1"
*A* < 6.00

*Q* Can you share its pIC50? I mean this molecule: "COc1cccc(CNC(=O)c2cc3cc(-c4cn[nH]c4)ccc3s2)c1"
*A* 8.17

*Q* Can you share its pIC50? I mean this molecule: "O=C(CCCCCCNC(=O)c1cc2cc(-c3ccncc3)ccc2s1)NO"
*A* < 6.00

*Q* Can you share its pIC50? I mean this molecule: "COc1cccc(CNC(=O)c2cc3cccc(-c4ccc5[nH]ncc5c4)c3s2)c1"
*A* < 6.00
